# Assayed Target: SARS-CoV-2 M^pro (Severe acute respiratory syndrome coronavirus 2, UniProt P0DTD1)
# Method: biochemical
# Format: binding
Numbered stars: 1 amine (or outer) side, 2 acyl side, 3 side chain; on linkers, the order of the positions; unused ones are H or OH. Bridge positions count the residues as written; N and C are the ends. Square brackets hold non-standard residues; d marks the D form. Peptide text beside a SMILES is read from it. Acbc(cis-1,3) = O=C([C@H]1C[C@@H](N[*:1])C1)[*:2]; X1 = O=C([C@@H]1CC[C@H](N[*:1])C1)[*:2]
Recorded kd (kinetic dissociation) by entry

Compound	Measured Metric	Observed Measurement
CC(C)C[C@@H]1NC(=O)[C@H](CC(N)=O)NC(=O)[C@H](CC(C)C)NC(=O)[C@H]2C[C@H](C2)NC(=O)[C@H](CCC(=O)O)NC(=O)[C@H](Cc2ccccc2)NC(=O)[C@@H](Cc2ccc(O)cc2)NC(=O)CSC[C@H](C(N)=O)NC(=O)CNC(=O)[C@@H]2CCCN2C(=O)[C@H](CCCNC(=N)N)NC(=O)[C@H](Cc2ccc(O)cc2)NC(=O)CNC1=O [GM4H3E] ({CH2CO}-[dY]FE[Acbc(cis-1,3)]LNLGYRPG[dC]-NH2; thioether N-13)	kd (kinetic dissociation)	7.1 10^-3 s^-1
CC[C@H](C)[C@@H]1NC(=O)[C@H](Cc2ccc(O)cc2)NC(=O)[C@H](CC(C)C)NC(=O)[C@H](CC(=O)O)NC(=O)[C@H](CCCNC(=N)N)NC(=O)[C@H](Cc2ccccc2)NC(=O)[C@@H]2CC[C@@H](C2)NC(=O)[C@H](Cc2c[nH]cn2)NC(=O)[C@H](Cc2ccccc2)NC(=O)[C@@H](Cc2ccc(O)cc2)NC(=O)CSC[C@H](C(N)=O)NC(=O)CNC(=O)[C@H](CC(C)C)NC1=O [GM5] ({CH2CO}-[dY]FH[X1]FRDLYILG[dC]-NH2; thioether N-13)	kd (kinetic dissociation)	1.2 10^-3 s^-1
CC(C)C[C@@H]1NC(=O)[C@H](CC(N)=O)NC(=O)[C@H](CC(C)C)NC(=O)[C@H]2C[C@H](C2)NC(=O)[C@H](CCC(N)=O)NC(=O)[C@H](Cc2ccccc2)NC(=O)[C@@H](Cc2ccc(O)cc2)NC(=O)CSC[C@H](C(N)=O)NC(=O)CNC(=O)[C@@H]2CCCN2C(=O)[C@H](CCCNC(=N)N)NC(=O)[C@H](Cc2ccc(O)cc2)NC(=O)CNC1=O [GM4H3Q] ({CH2CO}-[dY]FQ[Acbc(cis-1,3)]LNLGYRPG[dC]-NH2; thioether N-13)	kd (kinetic dissociation)	1.0 10^-3 s^-1
CC[C@H](C)[C@@H]1NC(=O)[C@H](Cc2ccc(O)cc2)NC(=O)[C@H](CC(C)C)NC(=O)[C@H](CC(=O)O)NC(=O)[C@H](CCCNC(=N)N)NC(=O)[C@H](Cc2ccccc2)NC(=O)[C@H](C)NC(=O)[C@H](Cc2c[nH]cn2)NC(=O)[C@H](Cc2ccccc2)NC(=O)[C@@H](Cc2ccc(O)cc2)NC(=O)CSC[C@H](C(N)=O)NC(=O)CNC(=O)[C@H](CC(C)C)NC1=O [GM5γ^24A] ({CH2CO}-[dY]FHAFRDLYILG[dC]-NH2; thioether N-13)	kd (kinetic dissociation)	8.7 10^-3 s^-1
CC(C)C[C@@H]1NC(=O)[C@H]([C@@H](C)O)NC(=O)[C@H](Cc2ccc(O)cc2)NC(=O)[C@H]([C@@H](C)O)NC(=O)[C@H](Cc2c[nH]cn2)NC(=O)[C@@H]2CCCN2C(=O)[C@@H]2CCCN2C(=O)[C@H](Cc2ccccc2)NC(=O)[C@H](C)NC(=O)[C@H](Cc2c[nH]cn2)NC(=O)[C@H](Cc2ccccc2)NC(=O)[C@@H](Cc2ccc(O)cc2)NC(=O)CSC[C@H](C(N)=O)NC1=O [GM1γ^14A] ({CH2CO}-[dY]FHAFPPHTYTL[dC]-NH2; thioether N-13)	kd (kinetic dissociation)	3.2 10^-3 s^-1
CC[C@H](C)[C@@H]1NC(=O)[C@H](CO)NC(=O)[C@H](Cc2ccccc2)NC(=O)[C@H]2C[C@H](C2)NC(=O)[C@H](Cc2c[nH]cn2)NC(=O)[C@H](Cc2ccccc2)NC(=O)[C@@H](Cc2ccc(O)cc2)NC(=O)CSC[C@H](C(N)=O)NC(=O)[C@H](CC(C)C)NC(=O)[C@H](CCCNC(=N)N)NC(=O)[C@H](Cc2ccc(O)cc2)NC(=O)[C@H](CCCNC(=N)N)NC(=O)[C@H](Cc2ccccc2)NC1=O [GM2] ({CH2CO}-[dY]FH[Acbc(cis-1,3)]FSIFRYRL[dC]-NH2; thioether N-13)	kd (kinetic dissociation)	15 10^-3 s^-1
CC(C)C[C@@H]1NC(=O)[C@@H](Cc2ccc(O)cc2)NC(=O)CSC[C@H](C(N)=O)NC(=O)[C@H](C)NC(=O)[C@H](C)NC(=O)[C@H](Cc2ccc(O)cc2)NC(=O)[C@H](CCCNC(=N)N)NC(=O)[C@H](Cc2ccc(O)cc2)NC(=O)[C@@H]2CC[C@@H](C2)NC(=O)[C@H](CO)NC(=O)[C@H](Cc2ccc(O)cc2)NC(=O)[C@H]([C@@H](C)O)NC(=O)[C@H](CO)NC(=O)[C@H](C)NC(=O)[C@H](Cc2ccc(O)cc2)NC(=O)[C@H](Cc2c[nH]cn2)NC1=O [GM3] ({CH2CO}-[dY]LHYASTYS[X1]YRYAA[dC]-NH2; thioether N-16)	kd (kinetic dissociation)	13 10^-3 s^-1
CC(C)C[C@@H]1NC(=O)[C@@H](Cc2ccc(O)cc2)NC(=O)CSC[C@H](C(N)=O)NC(=O)[C@H](C)NC(=O)[C@H](C)NC(=O)[C@H](Cc2ccc(O)cc2)NC(=O)[C@H](CCCNC(=N)N)NC(=O)[C@H](Cc2ccc(O)cc2)NC(=O)[C@H](C)NC(=O)[C@H](CO)NC(=O)[C@H](Cc2ccc(O)cc2)NC(=O)[C@H]([C@@H](C)O)NC(=O)[C@H](CO)NC(=O)[C@H](C)NC(=O)[C@H](Cc2ccc(O)cc2)NC(=O)[C@H](Cc2c[nH]cn2)NC1=O [GM3γ^210A] ({CH2CO}-[dY]LHYASTYSAYRYAA[dC]-NH2; thioether N-16)	kd (kinetic dissociation)	2.1 10^-3 s^-1

Can you share its kd (kinetic dissociation)? I mean this compound: CC(C)C[C@@H]1NC(=O)[C@H](CC(N)=O)NC(=O)[C@H](CC(C)C)NC(=O)[C@H](CC(N)=O)NC(=O)[C@H](Cc2c[nH]cn2)NC(=O)[C@H](Cc2ccccc2)NC(=O)[C@@H](Cc2ccc(O)cc2)NC(=O)CSC[C@H](C(N)=O)NC(=O)CNC(=O)[C@@H]2CCCN2C(=O)[C@H](CCCNC(=N)N)NC(=O)[C@H](Cc2ccc(O)cc2)NC(=O)CNC1=O [GM4γ^14N] ({CH2CO}-[dY]FHNLNLGYRPG[dC]-NH2; thioether N-13) 9.5 10^-3 s^-1

Can you share its kd (kinetic dissociation)? I mean this compound: CC(C)C[C@@H]1NC(=O)[C@H](C)NC(=O)[C@H](Cc2c[nH]cn2)NC(=O)[C@H](Cc2ccccc2)NC(=O)[C@@H](Cc2ccc(O)cc2)NC(=O)CSC[C@H](C(N)=O)NC(=O)CNC(=O)[C@@H]2CCCN2C(=O)[C@H](CCCNC(=N)N)NC(=O)[C@H](Cc2ccc(O)cc2)NC(=O)CNC(=O)[C@H](CC(C)C)NC(=O)[C@H](CC(N)=O)NC1=O [GM4γ^14A] ({CH2CO}-[dY]FHALNLGYRPG[dC]-NH2; thioether N-13) 2.6 10^-3 s^-1
